Origin of values: patent US4857540A

Target: dopamine-β-hydroxylase (DBH) (Bos taurus, UniProt P15101)
Sequence (P15101 1-610): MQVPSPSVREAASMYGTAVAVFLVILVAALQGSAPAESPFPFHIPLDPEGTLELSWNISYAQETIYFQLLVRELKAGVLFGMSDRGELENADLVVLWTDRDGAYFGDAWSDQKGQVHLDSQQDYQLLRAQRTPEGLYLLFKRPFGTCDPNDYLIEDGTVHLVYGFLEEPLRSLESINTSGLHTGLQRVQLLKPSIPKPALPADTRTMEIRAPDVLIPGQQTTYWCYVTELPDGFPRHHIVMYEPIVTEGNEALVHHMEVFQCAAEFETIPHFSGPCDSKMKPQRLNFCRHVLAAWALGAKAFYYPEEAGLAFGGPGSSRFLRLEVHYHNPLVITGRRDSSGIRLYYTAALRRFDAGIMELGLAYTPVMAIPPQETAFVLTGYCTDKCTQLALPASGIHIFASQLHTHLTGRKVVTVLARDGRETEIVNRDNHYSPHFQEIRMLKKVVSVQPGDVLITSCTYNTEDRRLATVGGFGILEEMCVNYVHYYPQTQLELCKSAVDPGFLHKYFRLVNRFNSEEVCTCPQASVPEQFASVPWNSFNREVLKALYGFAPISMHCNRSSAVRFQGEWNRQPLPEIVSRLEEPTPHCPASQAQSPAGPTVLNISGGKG
Assay: in vitro DBH inhibition, conversion of tyramine to octopamine (absorbance at 330 nm)
Format: biochemical
Conditions: in vitro, tyramine to octopamine; read-out: IC50 value (molar concentration of compound at which DBH activity was halved)
pIC50: −log10 of the molar value. Counter-ions that a name gives are not always drawn.
Decide by pIC50: equal to or exceeding 5 means 1, less means -1.

Request: Hi, just wondering whether Sc1nc2ccccc2n1Cc1ccccc1 [Example 5, N-benzyl-2-mercaptobenzimidazole] shows pIC50 of 5 or higher.
Result: -1

Request: Hi, just wondering whether NCc1nc2ccccc2n1Cc1ccccc1 [Example 37, hydrochloride] shows pIC50 of 5 or higher.
Result: 1

Request: Hi, just wondering whether NCc1nc2ccccc2n1Cc1ccc(Cl)c(Cl)c1 [Example 38, dihydrochloride] shows pIC50 of 5 or higher.
Result: -1

Request: Hi, just wondering whether Fc1cc(F)cc(Cn2c(S)nc3ccccc32)c1 [Example 6] shows pIC50 of 5 or higher.
Result: 1

Request: Hi, just wondering whether Oc1c(F)cc(Cn2c(S)nc3ccccc32)cc1F [Example 9] shows pIC50 of 5 or higher.
Result: 1

Request: Hi, just wondering whether Oc1c(Cl)cc(Cn2c(S)nc3ccccc32)cc1Cl [Example 8] shows pIC50 of 5 or higher.
Result: 1

Request: Hi, just wondering whether NCc1nc2ccccc2n1Cc1cccc(Cl)c1 [Example 40, dihydrochloride] shows pIC50 of 5 or higher.
Result: -1

Continuing:
Request: Hi, just wondering whether NCc1nc2ccccc2n1Cc1cccc(F)c1 [Example 39] shows pIC50 of 5 or higher.
Result: -1

###

Target: dopamine-β-hydroxylase (DBH) (Bos taurus)
Test: in vitro DBH inhibition, conversion of tyramine to octopamine (absorbance at 330 nm)
Assay type: biochemical
pIC50: −log10 of the molar value.
assay_endpoint: pIC50

Request: Please report pIC50 for the following compound: CCCCc1ccc(C(=O)O)nc1 [fusaric acid, reference compound]
Result: ~6.10
